# Tested on: Pseudomonas aeruginosa PAM1001
# EXPERIMENT: microbe, parasite or virus in culture
# Type: cell-based
# EXPERIMENTAL PARAMETERS: Pseudomonas aeruginosa, PAM1001, read-out: Inhibition (%) of growth of P. aeruginosa PAM1001
Counter-ions that a name gives are not always drawn.
inhibition at 10 µg/mL values, listed per item
Provide the reading as a plain figure in %.

| COMPOUND | RESULT UNITS | ASSAY RESULT |
| --- | --- | --- |
| Cc1cc(C)cc(NC(=O)[C@@H](CCc2ccccc2)NC(=O)[C@@H]2C[C@@H](NC(=O)CN)CN2)c1 [Compound D205, Dihydrochloride] | % | 100 |

Prompt: # query: inhibition at 10 µg/mL of entry NCCNC(=O)[C@@H]1C[C@@H](Oc2cccc(-c3ccccc3)c2)CN1 [Compound D601, Dihydrochloride]
Response: 16

Prompt: And then CNCC(=O)N1C[C@H](N)C[C@H]1C(=O)N1C[C@H](NC(=O)[C@H](O)CCc2ccccc2)C[C@H]1C(=O)Nc1cnc2ccccc2c1 (mixture of isomers) [Compound D111, Trihydrochloride] , what is it?
Response: 19

Prompt: Do the same for NCC(=O)N[C@@H]1CN[C@H](C(=O)N2C[C@H](NC(=O)[C@H](O)CCc3ccccc3)C[C@H]2C(=O)Nc2cnc3ccccc3c2)C1 (mixture of isomers) [Compound D104, Trihydrochloride] please
Response: 14

Prompt: And the next one, NCCC[C@@H](N)C(=O)N1C[C@H](NC(=O)CCCc2ccccc2)C[C@H]1C(=O)Nc1ccc2c(c1)CCC2 [Compound D121] ?
Response: 100

Prompt: Another compound to look at: NCC(=O)N[C@@H]1CN[C@@H](C(=O)N2CCN(Cc3ccccc3)C[C@H]2CCc2ccccc2)C1 [Compound D409, Trihydrochloride]
Response: 99

Prompt: What do you get for NCC(=O)N[C@H]1CCN[C@H](C(=O)N2C[C@H](NC(=O)[C@H](O)CCc3ccccc3)C[C@H]2C(=O)Nc2cnc3ccccc3c2)C1 (mixture of isomers) [Compound D114, Trihydrochloride] ?
Response: 90

Prompt: Also check NC[C@H]1CN[C@H](C(=O)Nc2ccc(Oc3ccccc3)cc2)C1 [Compound D331, Dihydrochloride]
Response: -10

###

# key: entry, value: inhibition at 10 µg/mL
# Tested on: Pseudomonas aeruginosa PAM1001
# EXPERIMENT: microbe, parasite or virus in culture
# Format: cell-based
# EXPERIMENTAL PARAMETERS: Pseudomonas aeruginosa, PAM1001, read-out: Inhibition (%) of growth of P. aeruginosa PAM1001
Where a name gives a salt, the structure may show the parent alone.

| COMPOUND | ASSAY RESULT |
| --- | --- |
| Cc1c(Cl)cccc1N1CCN(C(=O)[C@H]2C[C@H](NC(=O)[C@@H](O)CN)CN2)CC1 [Compound D402, Dihydrochloride] | 99% |

Prompt: # inhibition at 10 µg/mL lookup, item NCC(=O)N[C@H]1CN[C@H](C(=O)N2CCN(c3ccccc3Cl)CC2)C1 [Compound D405, Dihydrochloride]
Response: 16%

Prompt: What do we get for NCCS(=O)(=O)N[C@H]1CN[C@H](C(=O)Nc2ccc(Oc3ccccc3)cc2)C1 [Compound D322, Dihydrochloride] ?
Response: 17%

Prompt: What do you have for CC(C)(C)c1ccc(NC(=O)[C@@H]2C[C@@H](NC(=O)CN)CN2)cc1 [Compound D313, Dihydrochloride] ?
Response: 96%

The values you see were collected from patent US6399629B1.
